# credit: PubChem BioAssay AID1159580

- Procedure summary: chemical genetic growth profiling, strain panel (AID 1159580);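 also: tested at 20 µM; growth read once vehicle control cultures reached saturation at 30 °C; 1 = growth at the plate median or of vehicle wells; lower values mean less growth of the strain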
- Study conditions: S. cerevisiae deletion strains, growth OD, locus YOR329C, strain SCD5, stronger effect = lower value
Out of some 5,500 compounds screened, about 2,000 (36%) were called active. Another 18% or so got no clear call; they are omitted. Some of the results follow.
Kindly state normalized growth for each of the entries shown.

// known answers, use as guide
>  <Compound>
O=C1c2ccccc2O[C@@H](c2ccccc2)[C@@H]1NC1CCCCC1

>  <Assay endpoint>
normalized growth

>  <Assay result>
0.909 (inactive)

$$$$
>  <Compound>
O=C1c2ccccc2O[C@@H](c2ccccc2)[C@@H]1NCc1ccccc1

>  <Assay endpoint>
normalized growth

>  <Assay result>
0.911 (inactive)

$$$$
>  <Compound>
Cc1nc(-c2ccc(C(F)(F)F)cn2)[nH]c(=O)c1Cl

>  <Assay endpoint>
normalized growth

>  <Assay result>
0.93 (inactive)

$$$$
>  <Compound>
CC(C)CSc1nnc(CSCc2nc(-c3ccc(Cl)cc3)cs2)n1C

>  <Assay endpoint>
normalized growth

>  <Assay result>
0.974 (inactive)

$$$$
>  <Compound>
O=C1Nc2ccccc2/C1=N/N=C\c1ccccc1Cl

>  <Assay endpoint>
normalized growth

>  <Assay result>
0.965 (inactive)

$$$$

List reported normalized growth for each of these compounds:
1. N#Cc1c(Br)cnn1Cc1cc(C(F)(F)F)cc(C(F)(F)F)c1
2. COc1ccc(C2CC(c3ccccc3)=Nc3ccccc3S2)cc1OC (centres undefined)
3. CN(C(=O)N(C)c1ccc(Cl)cc1C(=O)c1ccccc1Cl)c1ccc(Cl)cc1C(=O)c1ccccc1Cl
4. C#Cc1cccc(N=Cc2cc(Cl)cc(Br)c2O)c1
5. Cc1ccc(C(=O)O/N=C(/N)CSc2ncccc2C(F)(F)F)cc1

Response line:
["0.991 (inactive)", "0.97 (inactive)", "0.846 (active)", "0.0917 (active)", "1.01 (inactive)"]

###

Please go through the items and note down their normalized growth.
- Procedure summary: chemical genetic growth profiling, strain panel (AID 1159580);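 also: tested at 20 µM; growth read once vehicle control cultures reached saturation at 30 °C; 1 = growth at the plate median or of vehicle wells; lower values mean less growth of the strain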
- Study conditions: S. cerevisiae deletion strains, growth OD, locus YCL011C, strain gbp2, stronger effect = lower value
Screen size: about 5,500 compounds; about 2,000 (36%) were called active. Roughly 18% stayed inconclusive and do not appear here. The list shows a part of the results.
Give bare numbers.

>  <Compound>
CC(=O)[C@H]1CCC2C3CC=C4C[C@@H](O)CC[C@]4(C)C3CC[C@@]21C (stereo not given in full)

>  <normalized growth>
0.947

$$$$
>  <Compound>
NCC(=O)CCC(=O)O

>  <normalized growth>
1

$$$$
>  <Compound>
CC(=O)OCC(=O)[C@H]1CCC2C3CC=C4C[C@@H](O)CC[C@]4(C)C3CC[C@@]21C (stereo not given in full)

>  <normalized growth>
0.858

$$$$
>  <Compound>
COc1cc2c(cc1OC)-c1cc3ccc(OC)c(OC)c3c[n+]1CC2

>  <normalized growth>
0.991

$$$$
>  <Compound>
CC(=O)[C@H]1CCC2C3CC=C4C[C@@H](OC(=O)CCC(=O)O)CC[C@]4(C)C3CC[C@@]21C (stereo not given in full)

>  <normalized growth>
0.957

$$$$

Please report normalized growth for every entry that follows.
1. COc1c2c(cc3c1OCO3)CC[N+](C)=C2
2. COc1ccc(-c2coc3cc(OC(C)=O)cc(OC(C)=O)c3c2=O)cc1
3. CC(C(=O)O)[C@H]1CCC2C3CC=C4C[C@@H](O)CC[C@]4(C)C3CC[C@@]21C (stereo not given in full)
4. C[n+]1cc2c3c(ccc2c2ccc4cc5c(cc4c21)OCO5)OCO3
5. O=C1CCc2cc(OCCCCc3nnnn3C3CCCCC3)ccc2N1
6. COCCOC(=O)C1=C(C)NC(C)=C(C(=O)OC(C)C)C1c1cccc([N+](=O)[O-])c1 (stereo not given)
7. COc1cc2cc[n+]3cc4c(OC)c(OC)ccc4cc3c2cc1OC
8. CCCCOc1cc(CC2CNC(=O)N2)ccc1OC (stereo not given)

Response line:
1: 0.986; 2: 0.919; 3: 1.03; 4: 0.34; 5: 0.995; 6: 1.02; 7: 0.963; 8: 0.984

Consider the following items and state reported normalized growth for each.
1. O=C1c2c(O)ccc(O)c2C(=O)c2c(NCCNCCO)ccc(NCCNCCO)c21
2. CC[N+]1(C)CCCC(OC(=O)C(O)(c2ccccc2)c2ccccc2)C1 (stereo not given)
3. COc1ccc2cc3[n+](cc2c1OC)CCc1cc2c(cc1-3)OCO2
4. CC(=O)OCC(=O)[C@@]1(O)CCC2C3CC[C@@H]4C[C@H](O)CC[C@]4(C)C3C(=O)C[C@@]21C (stereo not given in full)
5. O=c1c(-c2ccccc2)coc2cc(O)cc(O)c12
6. COc1cc([C@@H]2c3cc4c(cc3C(O[C@@H]3O[C@@H]5CO[C@@H](c6cccs6)OC5[C@H](O)[C@H]3O)C3COC(=O)[C@@H]32)OCO4)cc(OC)c1O (stereo not given in full)
7. CC[C@]12C=CCN3CC[C@@]4(c5ccc(OC)cc5N(C)C4[C@@](O)(C(=O)OC)[C@@H]1OC(C)=O)[C@@H]32 (stereo not given in full)

Response line:
1. 0.894
2. 1.03
3. 0.998
4. 1.04
5. 0.969
6. 0.987
7. 1.02
